# Experimental system: human HER3 endogenously expressed on human cancer cells (SK-Br-3, BT-474, MCF7) (human, UniProt P21860 20-1342)
# Method notes: cell-based or functional assay
I'd appreciate it if you could supply MCF7 pHER3 IC50 values for the items below.
Express it in pM; write the number only.

[Q] Please look at this binder and report its MCF7 pHER3 IC50: MOR12604 (antibody, V domains shown, Tested as IgG) VH: QVQLVQSGAEVKKPGSSVKVSCKASGGTFSSYAISWVRQAPGQGLEWMGLIIPRYGKARYAQKFQGRVTITADESTSTAYMELSSLRSEDTAVYYCARNWPYYYMDFWGQGTLVTVSS VL: DIVLTQSPATLSLSPGERATLSCRASQNIVFNLAWYQQKPGQAPRLLIYDASNRATGVPARFSGSGSGTDFTLTISSLEPEDFAVYYCQQKKSMPLTFGQGTKVEIKR
[A] 57

[Q] Please look at this binder and report its MCF7 pHER3 IC50: MOR13654 (antibody, human IgG1, lambda, V domains shown, Tested as IgG) VH: QVQLVQSGAEVKKPGASVKVSCKASGYTFTSYDIHWVRQAPGQGLEWMGRIDPYSGNTNYAQKFQGRVTMTRDTSISTAYMELSRLRSEDTAVYYCARGSFYTRDSYFDVWGQGTLVTVSS VL: DIALTQPASVSGSPGQSITISCTGTSSDVGTYNQVSWYQQHPGKAPKLMIYGVSKRPSGVSNRFSGSKSGNTASLTISGLQAEDEADYYCQSRGEYRPGWVFGGGTKLTVLG
[A] 331

The measurements presented in this section are drawn from patent US20130251703A1.
